system.name: Candida albicans dihydrofolate reductase (Candida albicans, UniProt P22906)
Construct: The optimized DFR1 ORF was then cloned into pET15b; 6xHis; host or cells: Escherichia coli
Sequence (P22906 1-192): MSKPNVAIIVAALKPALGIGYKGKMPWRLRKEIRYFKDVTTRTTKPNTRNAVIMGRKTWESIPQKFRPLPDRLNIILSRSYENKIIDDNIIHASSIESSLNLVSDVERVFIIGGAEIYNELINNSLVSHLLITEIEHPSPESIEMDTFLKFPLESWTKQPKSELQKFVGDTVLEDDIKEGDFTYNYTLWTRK
experimental.details: biochemical
Format: biochemical
conditions.used: purified C. albicans DHFR (6×His tag); read-out: IC50
value.type: IC50

INSERT INTO measurements (chemical_structure, system_name, value_type, observed_value) VALUES
  ('[H]/N=C(\N/C(=N/[H])Nc1ccc(Cl)cc1)NC(C)C', 'Candida albicans dihydrofolate reductase (Candida albicans, UniProt P22906)', 'IC50', '> 10 µM');
